System: 817829-284-R-J1-PDC complex spheroids, viability
Measurement Description: Anticancer human tumor 817829-284-R-J1-PDC patient-derived colon adenocarcinoma cell line growth inhibition [CLK]
Condition Label: second compound 0.316 µM; first compound 3.16 µM; hits give low values
Collected viability, T/C values appear next to each entry.
Experimental Endpoint: viability, T/C

[
  {
    "Compound": "C=CC(=O)N1CCN(c2nc(=O)n(-c3c(C)ccnc3C(C)C)c3nc(-c4c(O)cccc4F)c(F)cc23)C(C)C1 (stereo not drawn) + CNC(=O)c1ccc(Nc2nc(OC3CCCC3)c3c(-c4ccc5nc(C)oc5c4)c[nH]c3n2)c(OC)c1",
    "Result": "31.2%"
  },
  {
    "Compound": "CC(CO)NC(=O)c1cc(-c2ccc(Cl)cc2)nn(-c2cnn(C)c2)c1=O (stereo not drawn) + CNC(=O)c1ccc(Nc2nc(OC3CCCC3)c3c(-c4ccc5nc(C)oc5c4)c[nH]c3n2)c(OC)c1",
    "Result": "16.1%"
  },
  {
    "Compound": "Nc1ccccc1NC(=O)c1ccc(CNC(=O)OCc2cccnc2)cc1 + CN1CCN(c2cc(C(=O)Nc3cc4cc(-c5cnn(C)c5)ccc4cn3)ccn2)CC1",
    "Result": "0.03%"
  }
]

---

Collected viability, T/C values appear next to each entry.
Tested on: 817829-284-R-J1-PDC complex spheroids, viability
Measurement Description: Anticancer human tumor 817829-284-R-J1-PDC cell line growth inhibition [CLK];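 note: spheroids exposed to the agents for seven days before readout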
Condition Label: second compound 3.16 µM; first compound 1 µM; hits give low values

[
  {
    "Compound": "CC(CO)NC(=O)c1cc(-c2ccc(Cl)cc2)nn(-c2cnn(C)c2)c1=O (stereo not drawn) + CN1CCN(c2cc(C(=O)Nc3cc4cc(-c5cnn(C)c5)ccc4cn3)ccn2)CC1",
    "Target Or Test System": "817829-284-R-J1-PDC complex spheroids, viability",
    "Unit Abbrev": "%",
    "viability, T/C": 0.18
  },
  {
    "Compound": "CCCS(=O)(=O)Nc1ccc(F)c(C(=O)c2c[nH]c3ncc(-c4ccc(Cl)cc4)cc23)c1F + CNC(=O)c1ccc(Nc2nc(OC3CCCC3)c3c(-c4ccc5nc(C)oc5c4)c[nH]c3n2)c(OC)c1",
    "Target Or Test System": "817829-284-R-J1-PDC complex spheroids, viability",
    "Unit Abbrev": "%",
    "viability, T/C": 22.2
  },
  {
    "Compound": "O=c1[nH]cc(F)c(=O)[nH]1 + CN1CCN(c2cc(C(=O)Nc3cc4cc(-c5cnn(C)c5)ccc4cn3)ccn2)CC1",
    "Target Or Test System": "817829-284-R-J1-PDC complex spheroids, viability",
    "Unit Abbrev": "%",
    "viability, T/C": 0.1
  }
]

---

System: 817829-284-R-J1-PDC complex spheroids, viability
Measurement Description: Anticancer human tumor 817829-284-R-J1-PDC cell line growth inhibition [CLK];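 note: spheroids exposed to the agents for seven days before readout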
Condition Label: second compound 1 µM; first compound 0.1 µM; hits give low values
Experimental Endpoint: viability, T/C

[
  {
    "Compound": "CC(=O)O[C@H]1C(=O)[C@@]2(C)[C@H]([C@H](OC(=O)c3ccccc3)[C@]3(O)C[C@H](OC(=O)[C@H](O)[C@@H](NC(=O)c4ccccc4)c4ccccc4)C(C)=C1C3(C)C)[C@]1(OC(C)=O)CO[C@@H]1C[C@@H]2O + CN1CCN(c2cc(C(=O)Nc3cc4cc(-c5cnn(C)c5)ccc4cn3)ccn2)CC1",
    "Result": "0.1%"
  },
  {
    "Compound": "Nc1ccccc1NC(=O)c1ccc(CNC(=O)OCc2cccnc2)cc1 + CN1CCN(c2cc(C(=O)Nc3cc4cc(-c5cnn(C)c5)ccc4cn3)ccn2)CC1",
    "Result": "0.14%"
  },
  {
    "Compound": "C=C(F)C(=O)N1CCN(c2nc(OCC3CCCN3C)nc3c2CCN(c2cccc4cccc(Cl)c24)C3)CC1CC#N (stereo not given) + CNC(=O)c1ccc(Nc2nc(OC3CCCC3)c3c(-c4ccc5nc(C)oc5c4)c[nH]c3n2)c(OC)c1",
    "Result": "24.6%"
  },
  {
    "Compound": "CCN1CCN(Cc2ccc(Nc3ncc(F)c(-c4cc(F)c5nc(C)n(C(C)C)c5c4)n3)nc2)CC1 + CN1CCN(c2cc(C(=O)Nc3cc4cc(-c5cnn(C)c5)ccc4cn3)ccn2)CC1",
    "Result": "0.08%"
  },
  {
    "Compound": "C#Cc1c(F)ccc2cc(O)cc(-c3ncc4c(N5CC6CCC(C5)N6)nc(OCC56CCCN5CC(F)C6)nc4c3F)c12 (stereo not given) + CNC(=O)c1ccc(Nc2nc(OC3CCCC3)c3c(-c4ccc5nc(C)oc5c4)c[nH]c3n2)c(OC)c1",
    "Result": "18.2%"
  },
  {
    "Compound": "COc1c(OCCCN2CCOCC2)ccc2c3n(c(=NC(=O)c4cnc(N)nc4)nc12)CCN3 + CNC(=O)c1ccc(Nc2nc(OC3CCCC3)c3c(-c4ccc5nc(C)oc5c4)c[nH]c3n2)c(OC)c1",
    "Result": "9.58%"
  },
  {
    "Compound": "O=c1[nH]cc(F)c(=O)[nH]1 + CN1CCN(c2cc(C(=O)Nc3cc4cc(-c5cnn(C)c5)ccc4cn3)ccn2)CC1",
    "Result": "0.12%"
  },
  {
    "Compound": "C=CC(=O)N1CCN(c2nc(=O)n(-c3c(C)ccnc3C(C)C)c3nc(-c4c(O)cccc4F)c(F)cc23)C(C)C1 (stereo not given) + CNC(=O)c1ccc(Nc2nc(OC3CCCC3)c3c(-c4ccc5nc(C)oc5c4)c[nH]c3n2)c(OC)c1",
    "Result": "20.8%"
  },
  {
    "Compound": "Cn1ncnc1[C@H]1c2n[nH]c(=O)c3cc(F)cc(c23)N[C@@H]1c1ccc(F)cc1 + CNC(=O)c1ccc(Nc2nc(OC3CCCC3)c3c(-c4ccc5nc(C)oc5c4)c[nH]c3n2)c(OC)c1",
    "Result": "12.1%"
  },
  {
    "Compound": "CC1COCCN1c1cc(C2(S(C)(=N)=O)CC2)nc(-c2ccnc3[nH]ccc23)n1 (stereo not given) + CN1CCN(c2cc(C(=O)Nc3cc4cc(-c5cnn(C)c5)ccc4cn3)ccn2)CC1",
    "Result": "0.15%"
  },
  {
    "Compound": "Cn1ncnc1[C@H]1c2n[nH]c(=O)c3cc(F)cc(c23)N[C@@H]1c1ccc(F)cc1 + CN1CCN(c2cc(C(=O)Nc3cc4cc(-c5cnn(C)c5)ccc4cn3)ccn2)CC1",
    "Result": "0.09%"
  },
  {
    "Compound": "COc1ccc([C@@H](O)c2cc(-c3ncnc4cc(N5CCOCC5)ccc34)c(F)cc2Cl)nn1 + CN1CCN(c2cc(C(=O)Nc3cc4cc(-c5cnn(C)c5)ccc4cn3)ccn2)CC1",
    "Result": "0.13%"
  },
  {
    "Compound": "O=c1[nH]cc(F)c(=O)[nH]1 + CNC(=O)c1ccc(Nc2nc(OC3CCCC3)c3c(-c4ccc5nc(C)oc5c4)c[nH]c3n2)c(OC)c1",
    "Result": "16.8%"
  },
  {
    "Compound": "COc1c(OCCCN2CCOCC2)ccc2c3n(c(=NC(=O)c4cnc(N)nc4)nc12)CCN3 + CN1CCN(c2cc(C(=O)Nc3cc4cc(-c5cnn(C)c5)ccc4cn3)ccn2)CC1",
    "Result": "0.12%"
  },
  {
    "Compound": "CCCS(=O)(=O)Nc1ccc(F)c(C(=O)c2c[nH]c3ncc(-c4ccc(Cl)cc4)cc23)c1F + CNC(=O)c1ccc(Nc2nc(OC3CCCC3)c3c(-c4ccc5nc(C)oc5c4)c[nH]c3n2)c(OC)c1",
    "Result": "15%"
  },
  {
    "Compound": "CCCS(=O)(=O)Nc1ccc(F)c(C(=O)c2c[nH]c3ncc(-c4ccc(Cl)cc4)cc23)c1F + CN1CCN(c2cc(C(=O)Nc3cc4cc(-c5cnn(C)c5)ccc4cn3)ccn2)CC1",
    "Result": "0.11%"
  },
  {
    "Compound": "C=C(F)C(=O)N1CCN(c2nc(OCC3CCCN3C)nc3c2CCN(c2cccc4cccc(Cl)c24)C3)CC1CC#N (stereo not given) + CN1CCN(c2cc(C(=O)Nc3cc4cc(-c5cnn(C)c5)ccc4cn3)ccn2)CC1",
    "Result": "0.11%"
  },
  {
    "Compound": "C#Cc1c(F)ccc2cc(O)cc(-c3ncc4c(N5CC6CCC(C5)N6)nc(OCC56CCCN5CC(F)C6)nc4c3F)c12 (stereo not given) + CN1CCN(c2cc(C(=O)Nc3cc4cc(-c5cnn(C)c5)ccc4cn3)ccn2)CC1",
    "Result": "0.14%"
  },
  {
    "Compound": "O=C(c1cc(Cc2n[nH]c(=O)c3ccccc23)ccc1F)N1CCN(C(=O)C2CC2)CC1 + CN1CCN(c2cc(C(=O)Nc3cc4cc(-c5cnn(C)c5)ccc4cn3)ccn2)CC1",
    "Result": "0.1%"
  },
  {
    "Compound": "C=CC(=O)N1CCN(c2nc(=O)n(-c3c(C)ccnc3C(C)C)c3nc(-c4c(O)cccc4F)c(F)cc23)C(C)C1 (stereo not given) + CN1CCN(c2cc(C(=O)Nc3cc4cc(-c5cnn(C)c5)ccc4cn3)ccn2)CC1",
    "Result": "0.15%"
  }
]
